Biological target: Pro-neuregulin-1, membrane-bound isoform (Homo sapiens)
Test: NRG1 binders on small-molecule microarrays, primary screen, psychiatric disease protein project, biochemical, small-molecule microarray, fluorescence 635/667 (AID 1075);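 further: score combines 667 nm spot fluorescence with signal to noise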
Settings: NRG1 binding, 635 nm fluorescence, higher = more signal
Property Name: composite z-score
Number, no unit, nothing else.

Worked cases, answers included:
molecule=Cc1ccc(S[C@]2(C(=O)NCCCN(C)C)CC(=O)N(C3CCCCC3)[C@@H]2c2ccc(CO)cc2)cc1 property_name="composite z-score" endpoint_result=1.43
molecule=COc1cccc(/C=C/C=O)c1 property_name="composite z-score" endpoint_result=-0.437
molecule=CO[C@H]1O[C@H](CO)[C@@H](OC(=O)Nc2ccc3c(c2)OCO3)[C@H](OC(=O)c2cc3ccccc3[nH]2)[C@H]1OC(=O)c1cc2ccccc2[nH]1 property_name="composite z-score" endpoint_result=0.386

Field: next molecule
Entry COC(=O)[C@@]1(Cc2ccc(F)cc2)[C@H]2c3cc(C(=O)N(C)C)n(CCc4ccc(O)c(OC)c4)c3C[C@H]2CN1C(=O)c1ccccc1 has what composite z-score?
-0.0157

----------
Assay: binders of probe aFGF2 on microarray, primary screen, stem cell growth factor project, biochemical, small-molecule microarray, fluorescence 635/667 (AID 1067);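 further: measures binding of biotinylated aFGF2 protein to printed compounds on slides; z-score merges feature fluorescence and signal-to-noise across triplicate slides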
Conditions: higher = more signal
Property Name: composite z-score
Kindly provide the number alone.

// known answers, use as guide
compound="C[C@@H]1NC(=O)[C@@]23C(=O)N[C@@H](Cc4ccccc4)C2[C@H](C)[C@@]2(C)O[C@H]2C3/C=C/C/C=C\\CNC(=O)[C@@H]2CCCN2C1=O (stereo partly drawn)" endpoint_result=-0.158
compound=COC(=O)c1nc2oc1CC[C@@H](CO)NC(=O)N(C)Cc1cnnn1C[C@H](Cc1ccccc1)NC2=O endpoint_result=-0.062
compound="OCCCC1=CC(c2ccc(CN3CCCC3)cc2)N(Cc2sc3ccccc3c2Cl)CC1 (stereo not drawn)" endpoint_result=-0.221
compound="CC(=O)c1ccc(C(O)C2C=CC3C(=O)N(c4ccccc4)C(=O)C3N2Nc2ccc(C#N)cc2)cc1 (stereo not drawn)" endpoint_result=-0.122
compound=CCOC(=O)C[C@H]1[C@H](OC(=O)Cc2ccc3c(c2)OCO3)[C@@H](NC(=O)CC(C)C)c2cc(OCCCO)ccc2N1C(=O)Cc1ccc(OC)cc1 endpoint_result=-0.114
compound="CN1C(=O)C2C=CC(C(O)c3ccc(F)cc3)N(Nc3ccccc3)C2C1=O (stereo not drawn)" endpoint_result=-0.0222
compound=CCCCCCc1nc(C2CC2)cc2c1[Si](C(C)C)(C(C)C)OC2 endpoint_result=-0.14

Okay, next one:
# composite z-score lookup, item COc1ccc(NC(=O)O[C@H]2[C@H](OC(=O)Nc3ccccc3)[C@H](OC(=O)Nc3ccccc3)[C@@H](OC)O[C@@H]2CO)cc1
0.338

----------
Quick list: composite z-score per entry.
Target: Calmodulin-1 (Homo sapiens) (UniProt P0DP23)
Assay: calcium-bound CALM1 binders on microarrays, profiling panel, artefact control for SMM control-protein annotation, biochemical, small-molecule microarray, Cy5-labelled CALM1, plus calcium (AID 1112);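 further: score merges spot fluorescence with signal to noise from triplicate slides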
Details: Cy5-CALM1 binding fluorescence, higher = more signal
When you answer, write just the number.

Example entries begin here.
molecule=CCCCCCc1nc(C2CC2)cc2c1[Si](C(C)C)(C(C)C)OC2 property_name="composite z-score" endpoint_result=0.0599
molecule=CCCCC=C[C@@H](NC(=O)c1ccc(-c2ccccc2)cc1)c1ccccc1 property_name="composite z-score" endpoint_result=0.506
molecule="CC(=O)c1ccc(C(O)C2C=CC3C(=O)N(c4ccccc4)C(=O)C3N2Nc2ccc(C#N)cc2)cc1 (configuration not stated)" property_name="composite z-score" endpoint_result=0.586

So what's the measured composite z-score for this one? COC(=O)c1cn(C[C@@H](Cc2ccccc2)NC(=O)N[C@H](CO)CCc2oc(C(C)=O)c(C(=O)OC)c2C(=O)OC)nn1
-0.616

For CC(c1ccccc1)C(O)C1C=CC2C(=O)N(c3ccccc3)C(=O)C2N1Nc1ccc([N+](=O)[O-])cc1 (configuration not stated) then?
0.328

For COc1ccc(-c2cc3c(c(CCc4ccccc4)n2)[Si](C(C)C)(C(C)C)OC3)cn1 then?
0.151

----------
# composite z-score per entry
Experiment: binders of probe aFGF10 on microarray, primary screen, stem cell growth factor project, biochemical, small-molecule microarray, fluorescence 635/667 (AID 1071);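 further: score merges 667 nm spot intensity and signal to noise from triplicate slides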
Conditions: higher = more signal

Name the recorded composite z-score for COc1cc(OC)c(C(O)C2C=CC3C(=O)N(c4ccccc4)C(=O)C3N2Nc2ccccc2)cc1Br (stereo not drawn) .
0.208

// repeat for Cc1ccc(S[C@]2(C(=O)NCC(F)(F)F)CC(=O)N(Cc3ccccc3C(F)(F)F)[C@@H]2c2ccc(CO)cc2I)cc1 and report
-0.954

----------
Biological target: Alpha-bungarotoxin (Bungarus multicinctus)
Assay: alpha-bungarotoxin binders on microarray, profiling panel, artefact control for SMM control protein annotation, biochemical, small-molecule microarray, Alexa647 label, 635/667 nm fluorescence (AID 1117)
Conditions: alpha-BTX-A647 binding fluorescence, higher = more signal
Is composite z-score at least -0.2? Then criterion met. If not, criterion not met.

Is composite z-score at least -0.2? Consider CCCCCCCCCCC(O)C1C=CC2C(=O)N(C)C(=O)C2N1NC(=O)OC(C)(C)C (stereo unspecified)
criterion met

Okay, and O=C(NCC(F)(F)F)[C@@H]1c2ccccc2C(=O)N(Cc2cc(F)cc(C(F)(F)F)c2)[C@H]1c1ccc(CO)cc1 ?
criterion not met

Also C=CCN1Cc2ccccc2[C@H]2OC(c3ccc(OCCCO)cc3)=N[C@@]2(CC=C)C1=O , if possible.
criterion met

Entry to check: CC(C)(C)N1CC=CC23O[C@@H]4C=CCCOC(=O)C4[C@H]2C(=O)N(CCO)[C@@H]3C1=O (stereo partly specified)
criterion met

Please do the same for COC(=O)[C@@]1(Cc2ccccc2)[C@H]2c3cc(C(=O)N(C)C)n(Cc4c(CO)[nH]cc(C)c4=O)c3C[C@H]2CN1C(=O)c1ccccc1 as well.
criterion met

----------
Experiment: binders of probe aHhip on microarray, primary screen, stem cell growth factor project, biochemical, small-molecule microarray, fluorescence 635/667 (AID 1087);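 further: score merges spot fluorescence at 667nm with spot signal to noise ratio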
Conditions: higher = more signal
Property Name: composite z-score
Give the value as a plain number.

record_smiles=O=C1O[C@H](c2ccccc2)[C@H](c2ccccc2)N2[C@H]1[C@@H](C(=O)NC[C@H](O)c1ccccc1)[C@]1(C(=O)Nc3ccc(C#CCCO)cc31)[C@H]2c1ccc(OCCO)cc1 property_name="composite z-score" endpoint_result=-0.226
record_smiles=C=CC[C@]1(C(=O)NCCN2CCOCC2)N=C(c2ccc(OCCCO)cc2)O[C@H]1c1ccccc1CN=[N+]=[N-] property_name="composite z-score" endpoint_result=0.0338
record_smiles=COc1ccccc1CN1C(=O)c2ccccc2[C@@]2(Cc3ccccc3N(CC(F)(F)F)C2=O)[C@@H]1c1ccc(CO)cc1 property_name="composite z-score" endpoint_result=-0.403
record_smiles=COc1ccc([Si](C)(C)[C@@H]2[C@@H](CC(=O)N(CCO)Cc3ccccc3)O[C@]3(C(=O)N(Cc4cccc(N5C(=O)c6cccc7cccc5c67)c4)c4ccccc43)[C@H]2C)cc1 property_name="composite z-score" endpoint_result=-0.0193
record_smiles=COC(=O)[C@@]1(Cc2ccc(OC)cc2)[C@H]2c3cc(C(=O)N(C)C)n(C[C@H](O)CO)c3C[C@H]2CN1C(=O)c1ccccc1 property_name="composite z-score" endpoint_result=0.284

Value lookup for composite z-score; key = COC(=O)[C@@]1(Cc2ccccc2)[C@H]2c3cc(C(=O)N(C)C)n(CCN4CNCC4=O)c3C[C@H]2CN1C(=O)c1ccccc1
0.478

Can you check CCCNC(=O)[C@@]1(c2ccc([N+](=O)[O-])cc2)CC(=O)N(C2CCCCC2)[C@@H]1c1ccc(CO)cc1 next?
0.113

----------
Tested on: Plasmodium falciparum Sir2 (PF13_0152, Sir2A)
Assay: pfSir2 binders on small-molecule microarrays, primary screen, biochemical, small-molecule microarray, 635 nm fluorescence (AID 1098);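 further: score merges spot fluorescence intensity with its signal-to-noise ratio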
Details: small-molecule microarray binding, fluorescence 635 nm; higher = more signal
Each entry below carries its recorded composite z-score.
Respond using a number only.

Here are 5 compounds together with their reported answers.
compound=NCCCCCNC(=O)[C@@H]1C[C@@H]2C(=O)NCC(=O)N2[C@@H]1c1cccc(OCCO)c1 endpoint_result=1.06
compound=C=C(COC)/C(=C/C[C@H](OC(=O)c1ccncc1)c1ccccc1OCCO)c1cnc2ccccc2c1 endpoint_result=1.32
compound=C=CCNC(=O)[C@H]1[C@@H]2C(=O)O[C@@H](c3ccccc3)[C@@H](c3ccccc3)N2[C@@H](c2ccc(O)cc2)[C@]12C(=O)N(C(=O)OCCOC)c1ccccc12 endpoint_result=1.27
compound=COCCOC(=O)N1C(=O)[C@@]2(c3cc(C#CC4=CCCCC4)ccc31)[C@H](c1ccc(OCCO)cc1)N1[C@H](c3ccccc3)[C@H](c3ccccc3)OC(=O)[C@H]1[C@@H]2C(=O)N1CCN(c2ncccn2)CC1 endpoint_result=0.28
compound="O=C1C2C=CC(C(O)c3ccccc3)N(Nc3ccccc3F)C2C(=O)N1c1ccccc1 (configuration not stated)" endpoint_result=0.797

Would you mind telling me what composite z-score value was observed for C=CCC(OC(C)=O)[C@@H]1[C@@H](N(Cc2ccc(-c3cccc(C(F)(F)F)c3)o2)C(=O)c2ccc(C)cc2)c2cc(OCCCO)ccc2N1C(=O)c1ccc2ccccc2c1 (some centres not stated) ?
0.178

And COc1ccc(-c2nc(-c3ccccc3)c3c(c2C)CO[Si]3(C(C)C)C(C)C)cn1 ?
-0.18

Values compiled from PubChem BioAssay.
